- experimental_protocol: CCTE_Padilla_ZF_144hpf_TERATOSCORE: (Legacy) CCTE's 144 Hour Post-fertilization zebrafish Assay Teratoscore, Padilla Lab (AID 2283679)
Activity calls are given as the source filed them. Rule for the calls: active = hit-call score of the fitted dose curve at least 0.9, where 1 is the maximum; inactive = score below 0.9.
Possible outcomes: T for active, F for inactive

{"smiles_record": "O=C(O)C1(c2ccc3c(c2)OC[C@H](Cc2ccc(-c4ccccc4)cc2)[C@H]3O)CCCC1", "class_assignment": "T"}
{"smiles_record": "CC(C)O.CC(C)O.OCCN(CCO)CCO.OCCN(CCO)CCO.[Ti]", "class_assignment": "F"}
{"smiles_record": "CCCCCCCCCCCCc1cccc(S(=O)(=O)O)c1", "class_assignment": "T"}
{"smiles_record": "CN(C)C(=S)S", "class_assignment": "T"}
